- System: MGC-803
- protocol_details: Antiproliferative activity against human MGC-803 cells assessed as inhibition of cell proliferation incubated for 48 hrs by MTT assay
- Format: functional, cell-based
- measurement_conditions: MGC-803, 48 h
endpoint_name: IC50 (nM)

Please review the following examples before continuing.
>  <smiles_string>
COc1ccc(-c2cnoc2-c2cc(C)nc3ccccc23)cc1[N+](=O)[O-]

>  <units_text>
nM

>  <IC50>
65

$$$$
>  <smiles_string>
c1ccc2c(-c3[nH]nnc3-c3ccc4occc4c3)ccnc2c1

>  <units_text>
nM

>  <IC50>
8460

$$$$
>  <smiles_string>
CCCOc1ccc(-c2cn[nH]c2-c2cc(C)nc3ccccc23)cc1

>  <units_text>
nM

>  <IC50>
130

$$$$

A: CCCOc1ccc(-c2cnoc2-c2cc(C)nc3ccccc23)cc1
B: Cc1cc(-c2[nH]ncc2-c2ccc(OC(C)C)cc2)c2ccccc2n1
Short answer wanted: higher IC50, A or B ? Kindly state the label of the option you pick.
B
(B: 330 nM, A: 58 nM)

---

- Tested on: KYSE-270
- protocol_details: Antiproliferative activity against human KYSE-270 cells assessed as inhibition of cell growth incubated for 48 hrs by MTT assay
- Format: functional, cell-based
- measurement_conditions: KYSE-270, 48 h
endpoint_name: pIC50
pIC50 field: float, defined as -log10 of concentration (mol/L).

Using the record for COc1ccc(-c2cnoc2-c2cc(C)nc3ccccc23)cc1 , report its pIC50.
7.38

---

- Test system: MGC-803
- protocol_details: Antiproliferative activity against human MGC-803 cells assessed as inhibition of cell proliferation incubated for 48 hrs by MTT assay
- Format: functional, cell-based
- measurement_conditions: MGC-803, 48 h
endpoint_name: IC50 (nM)

>  <smiles_string>
CC(C)Oc1ccc(-c2nn[nH]c2-c2ccnc3ccccc23)cc1

>  <IC50 (nM)>
3360

$$$$

a: COc1cccc(-c2cnoc2-c2cc(C)nc3ccccc23)c1
b: c1ccc2c(-c3[nH]nnc3-c3ccc4[nH]ccc4c3)ccnc2c1
// which entry reports the smaller IC50, a or b ? Indicate your choice by writing its label.
a

---

- Tested on: MGC-803
- protocol_details: Antiproliferative activity against human MGC-803 cells assessed as inhibition of cell proliferation incubated for 48 hrs by MTT assay
- Format: functional, cell-based
- measurement_conditions: MGC-803, 48 h
pIC50: −log10 of the molar value.
endpoint_name: pIC50

>  <smiles_string>
CCCOc1ccc(-c2cnoc2-c2ccnc3ccccc23)cc1

>  <numeric_result>
6.36

$$$$
>  <smiles_string>
c1ccc2c(-c3oncc3-c3ccc4c(c3)CCO4)ccnc2c1

>  <numeric_result>
5.67

$$$$

I: CC(C)Oc1ccc(-c2cn[nH]c2-c2ccnc3ccccc23)cc1
II: CCCOc1ccc(-c2cn[nH]c2-c2ccnc3ccccc23)cc1
Short answer wanted: higher pIC50, I or II ? Answer by quoting the chosen item's label.
II
(II: 6.06, I: 5.32)

A: COc1ccccc1-c1cnoc1-c1cc(C)nc2ccccc12
B: Cc1ccc(-c2nn[nH]c2-c2ccnc3ccccc23)cc1
C: COc1cccc(-c2cn[nH]c2-c2cc(C)nc3ccccc23)c1
Ranking field: pIC50; order: falling. A complete answer lists every label in the requested sequence.
C, A, B
(C: 6.53, A: 5.71, B: 5.24)
